The values you see were collected from patent US11142515B2.

biological target: p38 MAPKα isoform (MAPK14) (Homo sapiens, UniProt Q16539); construct: purchased Life Technologies; test: p38 MAPKα enzyme inhibition (Z-LYTE FRET); assay type: biochemical; conditions: Table 2B, unit inferred; read-out: p38 MAPKα (Enzyme Profile)
Sequence (Q16539 whole entry, canonical isoform): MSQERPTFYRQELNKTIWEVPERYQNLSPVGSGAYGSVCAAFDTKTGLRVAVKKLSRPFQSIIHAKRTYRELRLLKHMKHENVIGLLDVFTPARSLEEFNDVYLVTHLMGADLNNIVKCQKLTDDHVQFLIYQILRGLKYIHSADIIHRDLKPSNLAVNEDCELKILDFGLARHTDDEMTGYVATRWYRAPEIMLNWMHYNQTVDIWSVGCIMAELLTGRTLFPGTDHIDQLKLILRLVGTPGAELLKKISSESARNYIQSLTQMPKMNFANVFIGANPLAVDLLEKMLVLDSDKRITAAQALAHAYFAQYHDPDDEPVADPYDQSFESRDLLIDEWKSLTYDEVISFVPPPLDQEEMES
pIC50: −log10 of the molar value.
pIC50 vs 8: at or above is 1, below is 0.

>>> category("CCCc1cncc(Nc2cc(COc3ccc(NC(=O)Nc4cc(C(C)(C)C)nn4-c4cccc(C)c4)c4ccccc34)ccn2)n1")
0
>>> category("Cc1cc(C)cc(-n2nc(C(C)(C)C)cc2NC(=O)Nc2ccc(OCc3ccnc(Nc4cnc(C(=O)N5CCCC5)cn4)c3)c3ccccc23)c1")
0
>>> category("CO[C@@H]1CCN(C(=O)c2cnc(Nc3cc(COc4ccc(NC(=O)Nc5cc(C(C)(C)C)nn5-c5ccc(C)cc5)c5ccccc45)ccn3)cn2)C1")
0
>>> category("Cc1ccc(-n2nc(C(C)(C)C)cc2NC(=O)Nc2ccc(OCc3ccnc(Nc4cnc(C(=O)N5CC(F)C5)cn4)c3)c3ccccc23)cc1")
0
>>> category("CCc1cncc(Nc2cc(COc3ccc(NC(=O)Nc4cc(C(C)(C)C)nn4-c4cc(C)cc(C)c4)c4ccccc34)ccn2)n1")
0
>>> category("CCc1ncc(Nc2cc(COc3ccc(NC(=O)Nc4cc(C(C)(C)C)nn4-c4ccc(C)cc4)c4ccccc34)ccn2)nc1CC")
0
>>> category("COCc1cccc(-n2nc(C(C)(C)C)cc2NC(=O)Nc2ccc(OCc3ccnc(Nc4cnc(C(=O)N5CCN(C)CC5)cn4)c3)c3ccccc23)c1")
1
>>> category("Cc1ccc(-n2nc(C(C)(C)C)cc2NC(=O)Nc2ccc(OCc3ccnc(Nc4cnc(C(=O)N5CC[C@H](N(C)C)C5)cn4)c3)c3ccccc23)cc1")
1
>>> category("COc1ccc(-n2nc(C(C)(C)C)cc2NC(=O)Nc2ccc(OCc3ccnc(Nc4cnc(C(=O)N5CCCC5)cn4)c3)c3ccccc23)cn1")
0

----------
// pIC50 lookup, one value per entry
molecular target: p38MAPKγ (MAPK12) (Homo sapiens); construct: purchased Life Technologies; test: p38 MAPKγ enzyme inhibition (Z-LYTE FRET); type: biochemical; conditions: Table 2A; read-out: IC50 Values for Enzyme Inhibition p38 MAPKγ
Sequence (P53778 whole entry): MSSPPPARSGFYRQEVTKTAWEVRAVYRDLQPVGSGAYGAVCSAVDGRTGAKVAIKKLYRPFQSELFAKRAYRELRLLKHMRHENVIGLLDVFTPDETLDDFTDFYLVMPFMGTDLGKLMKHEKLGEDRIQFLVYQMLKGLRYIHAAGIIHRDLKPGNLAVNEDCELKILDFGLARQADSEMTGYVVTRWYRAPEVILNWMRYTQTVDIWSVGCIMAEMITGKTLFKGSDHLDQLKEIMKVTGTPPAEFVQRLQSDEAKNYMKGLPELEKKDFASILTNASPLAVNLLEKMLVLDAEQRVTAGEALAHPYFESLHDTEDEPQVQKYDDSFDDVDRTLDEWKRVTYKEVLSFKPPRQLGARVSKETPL
pIC50: −log10 of the molar value.
readoutName: pIC50

>>> valuemeasured("Cc1ccc(-n2nc(C(C)(C)C)cc2NC(=O)Nc2ccc(OCc3ccnc(Nc4cnc(C(=O)NCCN5CCOCC5)cn4)c3)c3ccccc23)cc1")
7.13
>>> valuemeasured("COc1ccc(-n2nc(C(C)(C)C)cc2NC(=O)Nc2ccc(OCc3ccnc(Nc4cnccn4)c3)c3ccccc23)cc1Cl")
5.71
>>> valuemeasured("COc1cncc(Nc2cc(COc3ccc(NC(=O)Nc4cc(C(C)(C)C)nn4-c4ccc(C)cc4)c4ccccc34)ccn2)n1")
6.98
>>> valuemeasured("Cc1ccc(-n2nc(C(C)(C)C)cc2NC(=O)Nc2ccc(OCc3ccnc(Nc4cnccn4)c3)c3ccccc23)s1")
7.20
>>> valuemeasured("COCCNC(=O)c1cnc(Nc2cc(COc3ccc(NC(=O)Nc4cc(C(C)(C)C)nn4-c4ccc(C)s4)c4ccccc34)ccn2)cn1")
6.40
>>> valuemeasured("CCc1cnc(Nc2cc(COc3ccc(NC(=O)Nc4cc(C(C)(C)C)nn4-c4ccc(C)cc4)c4ccccc34)ccn2)cn1")
6.24
>>> valuemeasured("Cc1cccc(-n2nc(C(C)(C)C)cc2NC(=O)Nc2ccc(OCc3ccnc(Nc4cnccn4)c3)c3ccccc23)c1")
7.10
